Test system: Human immunodeficiency virus type 1 reverse transcriptase (Human immunodeficiency virus 1), Q72547 [K103N]
value.kind: IC90 (nM)
Provide only the numeric value, understood in nM.

Problem: Return reported IC90; argument: COc1c(Cl)ccc2c1C(C#Cc1ccccc1)(C(F)(F)F)NC(=O)N2 (stereo not given)
Result: 113

Problem: Which value of IC90 has been reported for COc1c(Cl)ccc2c1C(C#Cc1cccnc1)(C(F)(F)F)NC(=O)N2 (stereo not given) in the records?
Result: 147

Problem: Please give the measured IC90 for this molecule: O=C1Nc2ccc(Cl)cc2C(C#Cc2ccccc2)(C(F)(F)F)N1 (stereo not given)
Result: 7

Problem: Quick check: IC90 of O=C1Nc2ccc(Cl)c(O)c2C(C#CC2CC2)(C(F)(F)F)N1 (stereo not given) ?
Result: 28

Problem: May I ask what IC90 has been recorded for O=C1Nc2ccc(Cl)c3c2C(C(F)(F)F)(C=C(c2cccnc2)O3)N1 (stereo not given) ?
Result: 76

====

Tested on: HIV-1 reverse transcriptase (Human immunodeficiency virus 1)
assay.comment: Inhibitory concentration against wild-type virus K103N/[…] and HIV-1 RT double mutant in whole cell antiviral assay
// returns criterion not met unless IC90 is strictly below 2000 nM, in which case criterion met

O=C1Nc2ccc(Cl)cc2[C@@](C#CC2CC2)(C(F)(F)F)N1
criterion met

Problem: is_below(IC90, 2000 nM) for O=C1Nc2ccc(Cl)c(O)c2C(C#CC2CC2)(C(F)(F)F)N1 (configuration not stated) ?
Result: criterion not met

Problem: Identify whether the molecule O=C1Nc2ccc(Cl)c3c2C(C(F)(F)F)(C=C(c2ccccc2)O3)N1 (configuration not stated) records IC90 below 2000 nM.
Result: criterion met

Problem: Item COc1c(Cl)ccc2c1C(C#Cc1cccnc1)(C(F)(F)F)NC(=O)N2 (configuration not stated) : IC90 beneath 2000 nM, strictly?
Result: criterion not met

Problem: Find out if reported IC90 for O=C1Nc2ccc(Cl)c3c2C(C(F)(F)F)(C=C(c2cccnc2)O3)N1 (configuration not stated) is less than 2000 nM
Result: criterion met

Problem: Input COc1c(Cl)ccc2c1C(C#Cc1ccccc1)(C(F)(F)F)NC(=O)N2 (configuration not stated) ; condition: IC90 strictly below 2000 nM. Does it hold?
Result: criterion not met
